# Test summary: ATG_E_Box_CIS: Attagene CIS-FACTORIAL HepG2 Assay for human Enhancer Box (E-box) (AID 2282936)
# Reported conditions: HepG2 E-box cis-reporter transcription, actives raise or lower the signal
Active and inactive are the calls of the source. The calls were made as follows: active = hit-call score of the fitted dose curve at least 0.9, where 1 is the maximum; inactive = score below 0.9.
Give your call using only these classes: TRUE = active, FALSE = inactive

query: Dear all, I need the recorded test outcome for CCOc1nc(C(Cl)(Cl)Cl)ns1 , thank you.
result: FALSE

====

# Test summary: STM_H9_OrnithineISnorm_perc: Stemina devTOX quickPredict H9 human embryonic stem cell (hESC)-based Assay for Ornithine (ORN) Metabolite Biomarker, Normalized (AID 2283712);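 also: ornithine released into spent medium during last day measured by mass spectrometry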
Active and inactive are the calls of the source. Rule for the calls: active = hit-call score of the fitted dose curve at least 0.9, where 1 is the maximum; inactive = score below 0.9.
Assay metric: AC50

• CC(C)Nc1nc(Cl)nc(NC(C)C)n1 = 0.0393 µM (active)
• N#Cc1c[nH]cc1-c1cccc2c1OC(F)(F)O2 = 38.3 µM (active)
• CCOc1nc(C(Cl)(Cl)Cl)ns1 = 0.11 µM (active)
• O=C(Nc1ccccc1-c1ccc(Cl)cc1)c1cccnc1Cl = 50 µM (active)
• CCCCC(C#N)(Cn1cncn1)c1ccc(Cl)cc1 (stereo not drawn) = 76 µM (active)
• N#CN=C1SCCN1Cc1ccc(Cl)nc1 = inactive
• CCC(C)n1c(=O)[nH]c(C)c(Br)c1=O (stereo not drawn) = inactive
• Cc1cc(C)nc(Nc2ccccc2)n1 = inactive
• CS(=O)(=O)c1ccc(C(=O)C2C(=O)CCCC2=O)c([N+](=O)[O-])c1 = inactive
• CCCCC(O)(Cn1cncn1)c1ccc(Cl)cc1Cl (stereo not drawn) = 85.1 µM (active)

query: Name the recorded AC50 for CCN(CC)C(=O)C(C)Oc1cccc2ccccc12 (stereo not drawn) .
result: 50 µM (active)

query: Name the recorded AC50 for CC1(C)CON(Cc2ccccc2Cl)C1=O .
result: inactive

query: Name the recorded AC50 for CCNP(=S)(OC)O/C(C)=C/C(=O)OC(C)C (stereo not drawn) .
result: 50 µM (active)

query: Name the recorded AC50 for CCNC(=O)NC(=O)C(C#N)=NOC .
result: inactive

query: Name the recorded AC50 for CCCN(CC)CC1COC2(CCC(C(C)(C)C)CC2)O1 (stereo not drawn) .
result: inactive

query: Name the recorded AC50 for Clc1cccc(C(Cl)(Cl)Cl)n1 .
result: 19.7 µM (active)

query: Name the recorded AC50 for COCc1cnc(C2=NC(C)(C(C)C)C(=O)N2)c(C(=O)O)c1 (stereo not drawn) .
result: inactive

query: Name the recorded AC50 for CC1(C)C(C=C(Cl)Cl)C1C(=O)OC(C#N)c1cccc(Oc2ccccc2)c1 (stereo not drawn) .
result: inactive

Numbers sourced from PubChem BioAssay (EPA / NIEHS).
